Source of measurements: patent US6727237B2

A collection of compounds and their measured % Inhibition
target: bacterial NAD synthetase enzyme (Bacillus subtilis); test: biochemical; assay type: biochemical; settings: compound at 0.1 mM (Table 314)
Sequence (P08164 2-272 limits assumed): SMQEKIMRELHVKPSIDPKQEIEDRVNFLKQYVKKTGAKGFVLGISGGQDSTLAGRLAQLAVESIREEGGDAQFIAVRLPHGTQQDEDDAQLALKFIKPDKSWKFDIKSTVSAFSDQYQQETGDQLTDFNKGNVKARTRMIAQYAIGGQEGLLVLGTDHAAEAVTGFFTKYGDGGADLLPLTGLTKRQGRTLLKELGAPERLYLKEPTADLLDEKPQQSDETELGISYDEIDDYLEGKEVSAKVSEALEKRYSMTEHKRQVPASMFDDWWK
Reply with just the number (in %).

Would you please look over these solved cases?
> print(dat)
                                smilesinput                               studytarget  reportedproperty  readoutvalue
1  CC(C)c1ccc2[nH]c(CCCCOC(=O)c3cc[n+](C)cc3)cc2c1  bacterial NAD synthetase enzyme (Bacillus subtilis)      % Inhibition         47.68
2         O=C(OCCCCCCn1ccc2ccccc21)c1cccnc1  bacterial NAD synthetase enzyme (Bacillus subtilis)      % Inhibition         21.38
3  c1ccc(-c2ccc3[nH]c(CCCCCC[n+]4ccccc4)cc3c2)cc1  bacterial NAD synthetase enzyme (Bacillus subtilis)      % Inhibition         55.31

[in] Query (compound): CCCCc1ccc2[nH]c(CCCC[n+]3ccccc3)cc2c1 ; field requested: % Inhibition
[out] 27.37

[in] Query (compound): c1ccc(C(c2ccccc2)(c2ccccc2)c2ccc3[nH]c(CCCCCCC[n+]4ccc5ccccc5c4)cc3c2)cc1 ; field requested: % Inhibition
[out] 18.19

[in] Query (compound): CC(=O)c1ccc2[nH]c(CCCCCCCOC(=O)c3ccc(N(C)C)cc3)cc2c1 ; field requested: % Inhibition
[out] 4.42

[in] Query (compound): Cc1ccc2[nH]c(CCCCCC[n+]3ccccc3)cc2c1 ; field requested: % Inhibition
[out] 50.83

[in] Query (compound): O=[N+]([O-])c1ccc2[nH]c(CCCCC[n+]3ccccc3)cc2c1 ; field requested: % Inhibition
[out] 12.27
